Below is a list of entries, each paired with its recorded furin cleavage Z-score value.
test target: furin, P09958;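 also: purified furin at 1:10 enzyme:substrate in 50 mM HEPES pH 7.5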
Sequence (P09958 whole entry): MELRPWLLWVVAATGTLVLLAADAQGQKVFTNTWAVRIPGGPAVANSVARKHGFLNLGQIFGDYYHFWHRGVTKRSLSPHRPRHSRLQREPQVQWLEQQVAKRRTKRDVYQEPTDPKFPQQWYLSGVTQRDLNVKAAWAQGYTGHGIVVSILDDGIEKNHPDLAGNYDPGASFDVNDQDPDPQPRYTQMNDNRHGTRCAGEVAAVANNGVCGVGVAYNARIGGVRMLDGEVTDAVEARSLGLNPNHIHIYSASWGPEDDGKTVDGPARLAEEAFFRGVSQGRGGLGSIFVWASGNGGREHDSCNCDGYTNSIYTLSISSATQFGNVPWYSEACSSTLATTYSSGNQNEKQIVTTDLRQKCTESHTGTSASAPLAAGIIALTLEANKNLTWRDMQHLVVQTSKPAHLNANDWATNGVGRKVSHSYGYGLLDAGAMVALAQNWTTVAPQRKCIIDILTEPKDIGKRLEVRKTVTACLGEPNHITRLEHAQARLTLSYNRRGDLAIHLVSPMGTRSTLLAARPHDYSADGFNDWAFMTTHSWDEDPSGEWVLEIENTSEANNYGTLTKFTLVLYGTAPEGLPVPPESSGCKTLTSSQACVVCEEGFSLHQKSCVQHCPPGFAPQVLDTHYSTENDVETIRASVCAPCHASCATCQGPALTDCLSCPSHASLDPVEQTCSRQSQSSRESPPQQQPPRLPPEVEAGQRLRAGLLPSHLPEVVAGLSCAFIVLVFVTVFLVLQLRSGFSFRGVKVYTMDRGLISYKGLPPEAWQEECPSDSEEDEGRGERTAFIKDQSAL
protocol text: furin cleavage Z-score vs untreated control; higher = more cleavage, active = 3.5 or more, inactive = 1 or less, 8 variable residues between constant flanks
study conditions: 30 min
Some of the results follow. The hit rate among all sequences tested is not known here.

# sequence record, furin cleavage Z-score
rows = [
    ("CARPRRSAHRAGNASASA [FS-1863]", 8.89),
    ("CAVLVGGVLAAGNASASA [HC991]", -1.24),
    ("CAKSYRKRRAAGNASASA [FS-47]", 7.5),
    ("CAVLVVLLLFAGNASASA [HC346]", -0.108),
    ("CARPRRGSLRAGNASASA [FS-2502]", 1.07),
    ("CARPRRSAPKAGNASASA [FS-3200]", 6.05),
    ("CASQRRKRRAAGNASASA [FS-381]", 4.52),
]
